- Tested on: ATP;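 note: ATP exposure 15 min at 22 °C before imaging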
- ASSAY_NAME: switch fluorescence ratio, 500 uM ATP over buffer (Cy3 cluster intensity, sum of 5 cycles each) (fold (ratio)); higher = stronger signal-on switching upon ATP binding; sequences stand for … in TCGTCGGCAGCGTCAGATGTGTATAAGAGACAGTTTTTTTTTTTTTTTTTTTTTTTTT…TC
- CONDITION_PARAMETERS: aptamer strand: ATP DNA aptamer (quencher-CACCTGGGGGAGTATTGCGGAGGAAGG + anchor), 100 nM annealed; ATP concentration: 500 uM
METRIC_NAME: switch fluorescence ratio

Guide cases for switch fluorescence ratio, answers given:
{"columns": ["SEQ_STRING", "switch fluorescence ratio"],
 "data": [
  ["TCGAATAACT", 2.2],
  ["CCGGGGGAAT", 1.13],
  ["TGATGTGCA", 1.01],
  ["TGGTTGTGAG", 1],
  ["GAAGGGGGGT", 0.997]
]}

q: Could you share what switch fluorescence ratio was measured for TTCAAGGTA , tested on ATP?;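 note: ATP exposure 15 min at 22 °C before imaging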
a: 1.01

q: Same question, TCATTCTGGG this time
a: 1.01

q: Repeat for the following sequence: GGGCAAATGA
a: 0.976

q: How about ATGGTTTTT ?
a: 0.984

q: What do we get for GGGTTAGAAA ?
a: 1

q: Another sequence: GGGTATTGGG
a: 0.99

====

- Tested on: ATP;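 note: ATP exposure 15 min at 22 °C before imaging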
- ASSAY_NAME: switch fluorescence ratio, 500 uM ATP over buffer (Cy3 cluster intensity, sum of 5 cycles each) (fold (ratio)); higher = stronger signal-on switching upon ATP binding; sequences stand for … in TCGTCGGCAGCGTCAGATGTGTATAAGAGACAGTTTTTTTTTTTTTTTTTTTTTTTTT…TC
- CONDITION_PARAMETERS: aptamer strand: ATP DNA aptamer (quencher-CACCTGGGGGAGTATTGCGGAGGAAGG + anchor), 100 nM annealed; ATP concentration: 500 uM
METRIC_NAME: switch fluorescence ratio

{"columns": ["SEQ_STRING", "RECORDED_RESULT"],
 "data": [
  ["AAGAGGACGA", 1.01],
  ["GGGTTAGGTG", 1.14],
  ["TTTGGGCGCC", 1]
]}

q: Consider the sequence TCGGAAGGGT and give its measured switch fluorescence ratio.
a: 0.993

q: What do you have for ACATTTTGCG ?
a: 0.999

q: How about TACACTGAAA ?
a: 1.08

====

- System: ATP;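 note: ATP exposure 15 min at 22 °C before imaging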
- ASSAY_NAME: switch fluorescence ratio, 500 uM ATP over buffer (Cy3 cluster intensity, sum of 5 cycles each) (fold (ratio)); higher = stronger signal-on switching upon ATP binding; sequences stand for … in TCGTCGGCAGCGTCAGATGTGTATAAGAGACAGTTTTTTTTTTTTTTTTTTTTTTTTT…TC
- CONDITION_PARAMETERS: aptamer strand: ATP DNA aptamer (quencher-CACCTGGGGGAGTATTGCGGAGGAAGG + anchor), 100 nM annealed; ATP concentration: 500 uM
Each item that follows carries a reported switch fluorescence ratio.

# example entries with known answers
{"columns": ["SEQ_STRING", "switch fluorescence ratio"],
 "data": [
  ["CGTGTTGTTG", 1.02],
  ["TGAGAAGCGG", 0.97],
  ["TTTTTTTACG", 1.06],
  ["CGGTGGCTTC", 1],
  ["TATCGACGTT", 0.97]
]}

q: Param readout = switch fluorescence ratio; param system = ATP; param query = ATGCGGTCGG ; response: value;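 note: ATP exposure 15 min at 22 °C before imaging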
a: 1.02

q: One more sequence: TTCGTTTTTC
a: 0.956

q: Same lookup for TGTCCGGGGG , please.
a: 0.994

q: Also, TAGTGGACGG please.
a: 0.986

q: Now consider TTTTAATCGT .
a: 0.985

q: Likewise for AGGGGGCGAG ?
a: 0.988

q: What about this sequence? TGGGGTTAGG
a: 1

q: Try GTGTTGTTGC next.
a: 0.981

q: Would you kindly repeat that for GCGGGCGATG ?
a: 0.99

q: Would you mind doing AGATTTGGGC as well?
a: 1.02

Source of measurements: the supplement of paper PMC10126150
